# Tested on: U251 CNS
# EXPERIMENT_DESCRIPTION: NCI-60 one-dose screen, 48 h (100 = growth as untreated, 0 = no growth, -100 = all killed)
# ASSAY_SETUP: 10 µM unless noted
This is part of a sample that, as a whole, favours compounds with a hit. Of some 83,000 tested, about 20% had one in any assay.
Listed compounds paired with reported growth
MEASURE_NAME: growth (%)

1. COc1ccc2c3c([nH]c2c1)C(=O)c1nc(C)ccc1C3=O | 45.6
2. CC(C)(C)n1cc(-c2ccnc(NCCNS(=O)(=O)c3cccc4ccccc34)c2)c(-c2cccc(F)c2)n1 | -18.7
3. COc1ccc(/C=C2\COc3ccc(O)c(O)c3C2=O)cc1 | 12.8
4. CCOC(=O)C(=Cc1cccc(Br)c1)C(=O)OCC | 26.8
5. O=[N+]([O-])c1ccc(N/N=C(/C(=N/Nc2ccc([N+](=O)[O-])cc2)c2ccccc2)c2ccccc2)cc1 | 53.4

====

# Tested on: SW-620 colon
# EXPERIMENT_DESCRIPTION: NCI-60 one-dose screen, 48 h
# ASSAY_SETUP: 10 µM unless noted
# Experimental: Growth inhibition of the SW-620 human tumor cell line is measured as a screen for anti-cancer activity. Cells are grown in 96 well plates and exposed to the test compound for 48 hours. Compounds are tested at a single concentration, which is 10^-5 M for most compounds. The reported endpoint is percent growth (GI% or GIPRCNT), where numbers from 0 - 100% represent growth inhibition, and numbers from -100% - 0 represent cell death. For example, a value of 40 represents 60% growth inhibition. […]
Compounds without any hit were thinned out: in the full panel of roughly 83,000, 20% have a hit. The source made the active and inactive calls. Rule for the calls: active = growth percent below 10; inactive = the rest.
Classes used: active, inactive

1) CCCCOC(=O)OCc1cc(=O)c(O)co1 | inactive
2) Cn1cc(-c2csc(-c3c[nH]c4ccc(Br)cc34)n2)c2cnccc21 | active
3) Cc1ccc(Cc2cnc(NC(=O)c3cc(Br)cs3)s2)cc1 | inactive
4) O=C(Nc1nn(-c2ccc(Cl)cc2Cl)nc1-c1ccccc1)c1ccccc1 | inactive
5) O=C(c1ccc(-c2ccccc2)cc1)c1ccc([N+](=O)[O-])cc1 | inactive
6) CC(C)(C)[Si](C)(C)O[C@H]1C(=O)C=CN2CC=C[C@@H]12 | inactive
7) COc1ccc2c3c([nH]c2c1)C(=O)c1nc(C)ccc1C3=O | inactive
8) COc1ccc2[nH]cc(-c3nc(-c4cn(C)c5c(Cl)nccc45)cs3)c2c1 | active
9) COc1ccc(C(=O)Nc2cccc(C3CC(=O)c4c(cc(OC)c(OC)c4OC)O3)c2)cc1 (stereo not given) | inactive
10) CNC(=O)c1c(NC(=O)c2ccc(C(F)(F)F)cc2)sc2c1CCC(=O)C2 | active

====

Listed compounds paired with reported growth
# Tested on: HOP-62 NSCLC
# EXPERIMENT_DESCRIPTION: NCI-60 one-dose screen, 48 h (100 = growth as untreated, 0 = no growth, -100 = all killed)
# ASSAY_SETUP: 10 µM unless noted
Compounds without any hit were thinned out: in the full panel of roughly 83,000, 20% have a hit.
MEASURE_NAME: growth (%)

1) CCOC(=O)C1=C(NC)OCC1=O | 100
2) CCOC(=O)c1cc(-c2ccc([N+](=O)[O-])cc2)n(-c2ccc(C(=O)O)c(O)c2)c1C | 103
3) COc1ccc(/C=C2\COc3ccc(O)cc3C2=O)c(OC)c1OC | 80.9
4) S=C(Nc1ccc(-c2nc(N3CCOCC3)c3cccn3n2)cc1)Nc1cccnc1 | 46.6
5) O=C1Nc2ccc(I)cc2C1=O | 84.4
6) CC1(C)CC[C@]2(C(=O)O)CC[C@]3(C)C(=CC[C@@H]4[C@@]5(C)C/C(=C/O)C(=O)C(C)(C)[C@@H]5CC[C@]43C)[C@@H]2C1 | 73.1
7) O=C(/C=C/c1ccc(Cl)cc1)c1cccc(Nc2nc(Nc3ccccc3)nc(Nc3ccccc3)n2)c1 | 85.2
8) N#CC1=C(N)Oc2c(sc3c(Br)cccc23)C1c1ccc(F)cc1 (stereo not given) | 26.3
9) O=C1NCCC12CCN(c1c(Cl)cncc1-c1ccc(O)cc1)CC2 | 112
10) O=C1/C(=C/c2ccccc2Br)COc2ccc(O)c(O)c21 | -5.9
